System: Clostridium sporogenes DSM 1664
Assay: growth (OD595) fold change vs plate DMSO controls (fold change (ratio)); higher = more growth
Details: incubation time: 27 h, anaerobic, 37 °C
Where a name gives a salt, the structure may show the parent alone.
Where growth equals or exceeds 1, the correct label is 1.0; where it does not, the label is 0.0.

>  <Compound>
O=C(Nc1ccccc1)OCC(CN1CCCCC1)OC(=O)Nc1ccccc1 (stereo unspecified) [Diperodon hydrochloride] (20 µM)

>  <Assigned Category>
1.0

$$$$
>  <Compound>
CC1(C)S[C@@H]2[C@H](NC(=O)[C@H](N)c3ccccc3)C(=O)N2[C@H]1C(=O)O [Ampicillin sodium salt] (20 µM)

>  <Assigned Category>
0.0

$$$$
>  <Compound>
CC(=O)O[C@]1(C(C)=O)CC[C@H]2[C@@H]3C=C(Cl)C4=CC(=O)[C@@H]5C[C@@H]5[C@]4(C)[C@H]3CC[C@@]21C [Cyproterone acetate] (20 µM)

>  <Assigned Category>
1.0

$$$$

Is the recorded value of growth equal to or greater than 1 for this compound? CN1CCN(c2c(F)cc3c(=O)c(C(=O)O)cn4c3c2OCN4C)CC1 [Marbofloxacin] (20 µM)
0.0

Does C[C@]12CC[C@@H]3c4ccc(O)cc4CC[C@H]3[C@@H]1CCC2=O [Estrone] (20 µM) have a reported growth of at least 1?
1.0

Hi, just wondering whether NS(=O)(=O)c1cc2c(cc1Cl)NC(C(Cl)Cl)NS2(=O)=O (stereo unspecified) [Trichlormethiazide] (20 µM) shows growth of 1 or higher.
1.0

Check this compound for growth at or above 1: NC(=O)C(c1ccccc1)(c1ccccc1)[C@@H]1CCN(CCc2ccc3c(c2)CCO3)C1 [Darifenacin hydrobromide] (20 µM)
1.0

State whether the measured growth reaches 1, counting equality as reaching it, for CN(C)c1cc(NC(=O)CNC(C)(C)C)c(O)c2c1C[C@H]1C[C@H]3[C@H](N(C)C)C(=O)C(C(N)=O)=C(O)[C@@]3(O)C(=O)C1=C2O [Tigecycline] (20 µM)
0.0

Would you say C[C@]12CCC(=O)C=C1CC[C@@H]1[C@@H]2[C@@H](O)C[C@@]2(C)[C@H]1CC[C@]2(O)C(=O)CO [Hydrocortisone] (20 µM) shows growth at minimum 1?
0.0

Assess whether reported growth for CC(=O)Oc1ccccc1C(=O)Oc1ccccc1C(=O)O [Acetylsalicylsalicylic acid] (20 µM) sits at 1 or higher.
1.0
